# credit: the supplement of paper PMC10567573

B1: KRT13 (parent)
chain: TPGIDLTRVLAEMREQYEAMAERN

variants of: B1; assay: protein stability index of a GFP-peptide fusion (GPS, HEK-293T) (PSI 1-6); higher = more stable; settings: c terminus: a fixed tail appended;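 further: lentivirally expressed fusions sorted by FACS into six bins by GFP to DsRed ratio, PSI derived from sequencing read proportions per bin multiplied by bin number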
Assignment: determine reported protein stability index for the given variants.
One number for each entry.

INSERT INTO results (residue_string, assay_endpoint, quantitative_readout) VALUES
  ('TPGIDLTRVLAEMREQYEAMAARN [E22A]', 'protein stability index', 4.08),
  ('TPGIDLTRVLAEMREQYEAMAMRN [E22M]', 'protein stability index', 4.03),
  ('TPGIDLTNVLAEMREQYEAMAERN [R8N]', 'protein stability index', 4.11);

Next:
What protein stability index value was documented for this variant, TPGIDLNRVLAEMREQYEAMAERN [T7N] ?
3.92
